biological target: T1, Strep tagged recombinant human PD-1 (human, UniProt Q15116 25-170, limits assumed); experiment: SPR Biacore T200, strep-tagged PD-1 amine-coupled, single cycle kinetics
T1 construct: the whole entry is named; also called strep tagged human PD-1; not shown: Strep tag
T1 sequence (Q15116 25-170 limits assumed): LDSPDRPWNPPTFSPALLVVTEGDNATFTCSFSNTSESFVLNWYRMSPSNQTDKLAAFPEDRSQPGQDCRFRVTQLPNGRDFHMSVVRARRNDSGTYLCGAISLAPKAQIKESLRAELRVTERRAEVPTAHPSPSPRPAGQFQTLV
readoutName: kon (M⁻¹ s⁻¹)
Answers are plain numbers, in M⁻¹ s⁻¹.

Value of measured kon for the entry 1.57-9GS-1.57 (other, bivalent construct of two VH domains in one chain) QVQLVESGGGLVKPGGSLRLSCAASGFTFSDNSMTWMRQAPGKGLEWVSYISSGGGVIFYADSVKGRFTISRDNAKNSLYLQMNSLRADDTAVYYCAREAPLRLGESPHDAFDISGQGTMVTVSSGGGGSGGGGSGGGGSGGGGSGGGGSGGGGSGGGGSGGGGSGGGGSQVQLVESGGGLVKPGGSLRLSCAASGFTFSDNSMTWMRQAPGKGLEWVSYISSGGGVIFYADSVKGRFTISRDNAKNSLYLQMNSLRADDTAVYYCAREAPLRLGESPHDAFDISGQGTMVTVSS : 630000
